targetEntity: UniProt:P00533
assayText: EGFR kinase assay (ELISA)
measurementContext: concentration 30 nM; one value per replicate column
readoutLabel: inhibition at 0.03 µM (%)

(P) COCCOc1cc2ncnc(Nc3cccc(-c4cn(-c5ccccc5OC)nn4)c3)c2cc1OCCOC [e11]
(Q) COCCOc1cc2ncnc(Nc3cccc(-c4cn(Cc5ccccc5Br)nn4)c3)c2cc1OCCOC [e3]
Data request: Parameter metric = inhibition at 0.03 µM. Return the lower-valued option from P and Q . // return label of chosen record
Data returned: P

====

System: H460 cells
assayText: CCK-8 antiproliferation assay, H460
measurementContext: Homo sapiens, NCI-H460, read-out: Inhibitory efficacy, H460 cells; 1uM; given as fraction; Repeat 1-3
readoutLabel: inhibition at 1 µM (%)
The reply should contain only the number, in %.

compound: COCCOc1cc2ncnc(Nc3cccc(-c4cn(-c5ccccc5F)nn4)c3)c2cc1OCCOC [e6]
targetEntity: H460 cells
measureUnit: %
inhibition at 1 µM: 14.7
//
compound: COCCOc1cc2ncnc(Nc3cccc(-c4cn(-c5ccc(C)cc5O)nn4)c3)c2cc1OCCOC [e18]
targetEntity: H460 cells
measureUnit: %
inhibition at 1 µM: 17.1
//
compound: COCCOc1cc2ncnc(Nc3cccc(-c4cn(CCc5ccccc5)nn4)c3)c2cc1OCCOC [e20]
targetEntity: H460 cells
measureUnit: %
inhibition at 1 µM: 17.3

Record COCCOc1cc2ncnc(Nc3cccc(-c4cn(Cc5ccccc5I)nn4)c3)c2cc1OCCOC [e2] . Reported inhibition at 1 µM: 11.6

Record COCCOc1cc2ncnc(Nc3cccc(-c4cn(Cc5ccccc5Br)nn4)c3)c2cc1OCCOC [e3] . Reported inhibition at 1 µM: 30.3

Record COCCOc1cc2ncnc(Nc3cccc(-c4cn(-c5ccc(C)cc5)nn4)c3)c2cc1OCCOC [e12] . Reported inhibition at 1 µM: 16.7

====

targetEntity: wild-type EGFR (Homo sapiens)
Sequence (P00533 25-1210): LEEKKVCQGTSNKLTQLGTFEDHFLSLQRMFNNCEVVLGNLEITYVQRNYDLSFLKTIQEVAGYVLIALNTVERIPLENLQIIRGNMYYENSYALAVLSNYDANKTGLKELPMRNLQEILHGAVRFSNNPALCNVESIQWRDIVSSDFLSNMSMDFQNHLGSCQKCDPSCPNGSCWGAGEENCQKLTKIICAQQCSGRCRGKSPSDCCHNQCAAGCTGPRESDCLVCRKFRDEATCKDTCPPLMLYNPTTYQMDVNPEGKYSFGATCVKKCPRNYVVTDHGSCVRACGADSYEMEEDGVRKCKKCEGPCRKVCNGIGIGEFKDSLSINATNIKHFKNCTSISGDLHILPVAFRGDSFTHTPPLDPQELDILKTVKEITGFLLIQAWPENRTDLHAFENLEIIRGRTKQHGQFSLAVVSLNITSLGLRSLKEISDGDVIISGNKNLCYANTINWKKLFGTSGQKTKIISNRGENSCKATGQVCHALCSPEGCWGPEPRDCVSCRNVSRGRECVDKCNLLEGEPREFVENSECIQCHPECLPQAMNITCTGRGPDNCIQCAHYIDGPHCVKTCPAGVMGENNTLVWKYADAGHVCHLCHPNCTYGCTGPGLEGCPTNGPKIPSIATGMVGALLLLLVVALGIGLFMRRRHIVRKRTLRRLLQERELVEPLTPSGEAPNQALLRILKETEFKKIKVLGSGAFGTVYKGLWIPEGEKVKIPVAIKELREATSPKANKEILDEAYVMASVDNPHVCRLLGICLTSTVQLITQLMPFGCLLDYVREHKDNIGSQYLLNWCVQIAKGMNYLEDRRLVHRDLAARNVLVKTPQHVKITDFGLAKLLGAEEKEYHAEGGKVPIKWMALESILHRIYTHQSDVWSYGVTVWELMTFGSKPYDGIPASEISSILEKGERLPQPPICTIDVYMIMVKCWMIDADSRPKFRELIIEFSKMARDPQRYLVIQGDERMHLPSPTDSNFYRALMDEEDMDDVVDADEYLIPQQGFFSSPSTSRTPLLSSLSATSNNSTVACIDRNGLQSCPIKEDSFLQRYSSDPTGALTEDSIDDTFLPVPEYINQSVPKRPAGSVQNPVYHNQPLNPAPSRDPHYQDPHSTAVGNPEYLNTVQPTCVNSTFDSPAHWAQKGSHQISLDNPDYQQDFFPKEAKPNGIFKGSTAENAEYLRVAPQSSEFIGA
assayText: EGFR kinase assay (ELISA)
measurementContext: concentration 3 nM; one value per replicate column
readoutLabel: inhibition at 0.003 µM (%)

compound: COCCOc1cc2ncnc(Nc3cccc(-c4cn(-c5ccccc5C(F)(F)F)nn4)c3)c2cc1OCCOC
readoutLabel: inhibition at 0.003 µM
experimentalResult: 19.8
//
compound: COCCOc1cc2ncnc(Nc3cccc(-c4cn(-c5ccccc5)nn4)c3)c2cc1OCCOC
readoutLabel: inhibition at 0.003 µM
experimentalResult: 33.2
//
compound: COCCOc1cc2ncnc(Nc3cccc(-c4cn(CCc5ccccc5)nn4)c3)c2cc1OCCOC
readoutLabel: inhibition at 0.003 µM
experimentalResult: 38.5

(A) CCOc1cccc(-n2cc(-c3cccc(Nc4ncnc5cc(OCCOC)c(OCCOC)cc45)c3)nn2)c1
(B) COCCOc1cc2ncnc(Nc3cccc(-c4cn(Cc5ccccc5I)nn4)c3)c2cc1OCCOC [e2]
(C) COCCOc1cc2ncnc(Nc3cccc(-c4cn(-c5ccc(OC)cc5OC)nn4)c3)c2cc1OCCOC
Data request: # rank_down: sort by inhibition at 0.003 µM, max first List the labels in the requested order.
Data returned: B, C, A
(B: 31.8%, C: 14.4%, A: 5.55%)

====

Tested on: A549 cells
assayText: CCK-8 antiproliferation assay, A549
measurementContext: Homo sapiens, A549, read-out: Inhibitory efficacy, A549 cells; 1uM; given as fraction; Repeat 1-3
readoutLabel: inhibition at 1 µM (%)
The reply should contain only the number, in %.

Sample records with inhibition at 1 µM:
molecule: COCCOc1cc2ncnc(Nc3cccc(-c4cn(-c5ccc(OC)c(OC)c5)nn4)c3)c2cc1OCCOC [e19]
inhibition at 1 µM, %: 21.2
//
molecule: CCOc1cccc(-n2cc(-c3cccc(Nc4ncnc5cc(OCCOC)c(OCCOC)cc45)c3)nn2)c1 [e14]
inhibition at 1 µM, %: 8.24
//
molecule: COCCOc1cc2ncnc(Nc3cccc(-c4cn(-c5ccc(OC)cc5OC)nn4)c3)c2cc1OCCOC [e17]
inhibition at 1 µM, %: 15.3

Now for a further molecule.
Record COCCOc1cc2ncnc(Nc3cccc(-c4cn(-c5ccc(Br)cc5)nn4)c3)c2cc1OCCOC [e10] . Reported inhibition at 1 µM: 35.9
